target: β1-adrenoceptor (Rattus norvegicus); construct: The atrium of male SD rat (body weight 250-400 g) was isolated; assay: β1-adrenoceptor stimulation in isolated tissue: heart rate increment of rat atrium (Magnus method); details: read-out: β1 receptor EC50
Sequence (P18090 whole entry): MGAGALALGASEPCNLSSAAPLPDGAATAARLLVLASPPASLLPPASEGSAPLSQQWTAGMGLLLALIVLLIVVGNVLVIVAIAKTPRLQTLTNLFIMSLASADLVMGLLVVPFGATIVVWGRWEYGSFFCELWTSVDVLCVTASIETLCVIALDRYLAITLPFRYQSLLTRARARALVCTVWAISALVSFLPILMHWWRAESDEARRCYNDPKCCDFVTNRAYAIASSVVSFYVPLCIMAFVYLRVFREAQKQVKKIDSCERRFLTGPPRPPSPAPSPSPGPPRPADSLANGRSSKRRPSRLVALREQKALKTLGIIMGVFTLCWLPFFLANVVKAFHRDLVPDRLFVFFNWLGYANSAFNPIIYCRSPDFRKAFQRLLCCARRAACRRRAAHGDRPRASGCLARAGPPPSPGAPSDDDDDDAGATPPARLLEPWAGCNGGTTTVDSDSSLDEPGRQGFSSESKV
pEC50: −log10 of the molar value.
observable: pEC50

See these solved cases before continuing.
O=C(O)c1cccc(-c2cccc(OCCNC[C@H](O)c3cccc(Cl)c3)c2)c1 [Comparison, reference compound] ... 5.73
CC(C)c1cc(C(=O)O)ccc1-c1ccc(OCCN[C@@H](C)[C@H](O)c2ccc(O)cc2)cc1 [Compound 156] ... < 5.00

# ---- query molecule ----
Ask: Entry CCc1cc(C(=O)O)ccc1-c1ccc(OCCN[C@@H](C)[C@H](O)c2ccc(O)cc2)cc1 [Compound 153] has what pEC50?
Result: < 5.00

---

biological target: human β1-adrenoceptor (Homo sapiens, UniProt P08588); construct: Both ends of a domain including full length of human β1-adrenoceptor were amplified; expressed in transfected cells; host or cells: CHO cells; assay: Agonistic activities on human β1-adrenoceptor (cAMP in transfected CHO cells); assay type: cell-based; settings: CHO cells expressing human β1-adrenoceptor, cAMP; 50% of isoproterenol maximum; read-out: β1 receptor EC50
Sequence (P08588 whole entry): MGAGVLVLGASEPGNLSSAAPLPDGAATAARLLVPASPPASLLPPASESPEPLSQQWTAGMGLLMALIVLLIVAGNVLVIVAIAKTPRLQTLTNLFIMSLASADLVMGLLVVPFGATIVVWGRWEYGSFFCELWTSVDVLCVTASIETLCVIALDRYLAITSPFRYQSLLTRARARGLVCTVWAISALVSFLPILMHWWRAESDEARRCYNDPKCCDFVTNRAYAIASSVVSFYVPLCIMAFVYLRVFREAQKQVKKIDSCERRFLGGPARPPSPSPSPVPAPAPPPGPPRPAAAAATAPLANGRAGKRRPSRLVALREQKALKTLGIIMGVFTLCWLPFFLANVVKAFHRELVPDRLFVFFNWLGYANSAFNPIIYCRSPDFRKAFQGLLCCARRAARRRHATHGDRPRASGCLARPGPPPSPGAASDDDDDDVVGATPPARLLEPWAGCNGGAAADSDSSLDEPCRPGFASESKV
observable: EC50 (nM)
One number for each entry, in nM.

Ask: Entry O=C(O)c1cccc(-c2cccc(OCCNC[C@H](O)c3cccc(Cl)c3)c2)c1 [Comparison, reference compound] has what EC50?
Result: 740
